- protocolDetails: Photophysical measurement
- Type: physicochemical
observable: log10 Lifetime (log10 of the value in μs)

# smilesRepr, log10 Lifetime
data = [
    ("F[P-](F)(F)(F)(F)F.c1ccc(-c2cc[n+]3c(c2)-c2cc(-c4ccccc4)cc[n+]2[Ir-3]324([c]3ccccc3-c3ccc5ccccc5[n+]32)[c]2ccccc2-c2ccc3ccccc3[n+]24)cc1", 0.66),
    ("Cc1cc(-c2ccccc2)c2ccc3c(-c4ccccc4)cc(C)[n+]4c3c2[n+]1[Ir-3]412([c]3ccccc3-c3ccc4ccccc4[n+]31)[c]1ccccc1-c1ccc3ccccc3[n+]12.F[P-](F)(F)(F)(F)F", 0.26),
    ("Cc1cccc2[n+]1[Ir-3]13([c]4ccccc4-2)([c]2ccccc2-c2cccc(C)[n+]21)[n+]1ccc(-c2ccccc2)c2ccc4c(-c5ccccc5)cc[n+]3c4c21.F[P-](F)(F)(F)(F)F", 0.09),
    ("Clc1cc2ccc[n+]3c2c2c1ccc[n+]2[Ir-3]312([c]3ccccc3-c3[nH]c4ccccc4[n+]31)[c]1ccccc1-c1[nH]c3ccccc3[n+]12.F[P-](F)(F)(F)(F)F", 0.43),
    ("Cc1ccc2ccc3ccc(C)[n+]4c3c2[n+]1[Ir-3]412([c]3ccccc3-c3ccc4ccccc4[n+]31)[c]1ccccc1-c1ccc3ccccc3[n+]12.F[P-](F)(F)(F)(F)F", 0.29),
    ("Cc1c(C)c2cccnc2c2ncccc12.Cc1c[c-]c(-c2ccccn2)cc1.Cc1c[c-]c(-c2ccccn2)cc1.F[P-](F)(F)(F)(F)F.[Ir+3]", -0.13),
    ("F[P-](F)(F)(F)(F)F.[Ir+3].[c-]1ccccc1-c1ccc2ccccc2n1.[c-]1ccccc1-c1ccc2ccccc2n1.c1cnc2c(c1)ccc1cccnc12", 0.91),
    ("Clc1cc[n+]2c3c1ccc1c(Cl)cc[n+](c13)[Ir-3]213([c]2ccccc2-c2ccc4ccccc4[n+]21)[c]1ccccc1-c1ccc2ccccc2[n+]13.F[P-](F)(F)(F)(F)F", 0.46),
    ("F[P-](F)(F)(F)(F)F.[Ir+3].[c-]1ccccc1-c1ncco1.[c-]1ccccc1-c1ncco1.c1ccc(-c2ccccn2)nc1", -0.55),
    ("F[P-](F)(F)(F)(F)F.c1ccc(-c2ccc3ccc4ccc(-c5ccccc5)[n+]5c4c3[n+]2[Ir-3]523([c]4ccccc4-n4ccc[n+]42)[c]2ccccc2-n2ccc[n+]23)cc1", 0.52),
]

----------
- protocolDetails: Photophysical measurement
- Assay type: physicochemical
- conditionLabel: reference [Ru(bpy)3][PF6]2 in degassed acetonitrile
- Description: Emission spectra and lifetime measurements for complexes were performed on a PTI TimeMaster C720 Spectrometer (Nitrogen laser: pulse output 337 nm) fitted with a 380 nm filter. Error limits were estimated: λ (±1 nm); τ (±10%); φ (±10%). […] Luminescence quantum yields were determined using the method of Demas and Crosby [Ru(bpy)3][PF6]2 in degassed acetonitrile as a standard reference solution (Φr=0.062) and calculated according to the following equation: […]
Quantum yield overview

# smilesRepr, Quantum yield
data = [
    ("F[P-](F)(F)(F)(F)F.c1ccc(-c2cc[n+]3c(c2)-c2cc(-c4ccccc4)cc[n+]2[Ir-3]324([c]3ccccc3-c3ccc5ccccc5[n+]32)[c]2ccccc2-c2ccc3ccccc3[n+]24)cc1", 0.15),
    ("Clc1cc2cccnc2c2ncccc12.F[P-](F)(F)(F)(F)F.[Ir+3].[c-]1ccccc1-c1ccccn1.[c-]1ccccc1-c1ccccn1", 0.078),
    ("Clc1cc[n+]2c3c1ccc1c(Cl)cc[n+](c13)[Ir-3]213([c]2ccccc2-c2ccc4ccccc4[n+]21)[c]1ccccc1-c1ccc2ccccc2[n+]13.F[P-](F)(F)(F)(F)F", 0.086),
    ("F[P-](F)(F)(F)(F)F.[Ir+3].[c-]1ccccc1-c1ncco1.[c-]1ccccc1-c1ncco1.c1ccc(-c2ccccn2)nc1", 0.089),
]
